testedOn: Cytochrome P450 2C9 (Homo sapiens)
methodNotes: Cytochrome panel assay with activity outcomes
reportedConditions: recombinant CYP, pro-luciferin dealkylation, luminescence, p450-cyp2c9; series mostly up to 57.1 µM
In all, about 16,000 compounds went through this assay and about 4,000 (25%) were called active. Roughly 26% stayed inconclusive and do not appear here. Calls come from the whole dose curve; as a rule, active = well fitted curve in the direction sought with a large enough effect; inconclusive = small, poorly fitted or top-dose-only effect, or effect the other way; inactive = no such curve, though single readings can be large or run the other way. These entries were drawn from the full list.
Answer with one of the outcomes class 1 for active, class 0 for inactive

Some solved entries appear below for comparison.
[[record]]
molecule = "O=C(NCC1CCCO1)C(c1cccnc1)N(C(=O)Cc1cccs1)c1cccnc1 (stereo not given)"
labelvalue = "class 0"

[[record]]
molecule = "N#C/C(=C\\c1cccs1)C(=O)NCC1CCCO1 (stereo not given)"
labelvalue = "class 0"

[[record]]
molecule = "CC[C@@H]1OC(=O)[C@H](C)[C@H](O[C@@H]2C[C@](C)(OC)[C@H](O)[C@H](C)O2)[C@H](C)[C@H](O[C@@H]2O[C@@H](C)C[C@@H](N(C)C)[C@@H]2O)[C@](C)(O)C[C@H](C)C(=NOCOCCOC)[C@H](C)[C@H](O)[C@]1(C)O"
labelvalue = "class 0"

[[record]]
molecule = "COc1cc(NS(=O)(=O)c2ccc(N)cc2)ncn1"
labelvalue = "class 0"

[[record]]
molecule = "CCN[C@@H]1C[C@H](C)S(=O)(=O)c2sc(S(N)(=O)=O)cc21"
labelvalue = "class 0"

[[record]]
molecule = "CNc1cc(NS(=O)(=O)c2ccc(N)cc2)nc(NC)n1"
labelvalue = "class 1"

[[record]]
molecule = "C[N+](C)(C)CCOC(N)=O"
labelvalue = "class 0"

[[record]]
molecule = "CN(C)c1ncc2nc(-c3ccc(F)cc3)c(=O)n(C[C@H]3CCCO3)c2n1"
labelvalue = "class 0"

[[record]]
molecule = "Cc1ccc(N(C(=O)Cn2nnc(-c3ccc(F)cc3)n2)C(CC(C)C)C(=O)NCC2CCCO2)cc1 (stereo not given)"
labelvalue = "class 1"

[[record]]
molecule = "COc1ccc(C(=O)NC(CO)c2nnc(SCc3ccc(Cl)c(Cl)c3)n2C)cc1 (stereo not given)"
labelvalue = "class 1"


Please indicate how the test categorized Cc1cc(C)nc(NS(=O)(=O)c2ccc(N)cc2)n1 .
class 0

Please indicate how the test categorized O=[N+]([O-])c1ccc(N2CCN(CCOc3nonc3-c3ccccc3)CC2)c(Cl)c1 .
class 1

Please indicate how the test categorized CC(C)CC(C(=O)NCC1CCCO1)N(C(=O)Cn1nnc(-c2ccc(F)cc2)n1)c1cccc(C(F)(F)F)c1 (stereo not given) .
class 1

Please indicate how the test categorized COC(=O)c1ccccc1NC(=O)CSc1nnc(C(CO)NC(=O)c2ccccc2Cl)n1C (stereo not given) .
class 0

Please indicate how the test categorized Cc1ccc(CSc2nnc(-c3ccncc3)n2CC2CCCO2)cc1 (stereo not given) .
class 1

====

testedOn: Cytochrome P450 2C9 (Homo sapiens) (UniProt P11712)
Sequence (P11712 whole entry, looked up): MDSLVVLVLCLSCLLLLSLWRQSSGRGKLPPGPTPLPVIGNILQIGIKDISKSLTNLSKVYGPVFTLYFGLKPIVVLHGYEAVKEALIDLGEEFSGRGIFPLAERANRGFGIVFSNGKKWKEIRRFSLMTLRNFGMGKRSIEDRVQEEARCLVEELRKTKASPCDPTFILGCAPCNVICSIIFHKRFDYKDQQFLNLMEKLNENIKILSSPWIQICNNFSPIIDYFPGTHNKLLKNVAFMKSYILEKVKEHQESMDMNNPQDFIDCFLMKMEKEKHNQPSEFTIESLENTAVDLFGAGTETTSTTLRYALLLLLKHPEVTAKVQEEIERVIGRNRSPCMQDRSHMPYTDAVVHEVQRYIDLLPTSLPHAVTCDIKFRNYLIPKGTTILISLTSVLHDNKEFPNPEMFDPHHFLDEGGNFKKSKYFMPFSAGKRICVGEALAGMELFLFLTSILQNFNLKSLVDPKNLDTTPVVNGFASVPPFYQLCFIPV
methodNotes: Cytochrome panel assay with activity outcomes
reportedConditions: recombinant CYP, pro-luciferin dealkylation, luminescence, p450-cyp2c9; series mostly up to 57.1 µM
Screen size: about 16,000 compounds; about 4,000 (25%) were called active. About 26% were inconclusive and are not listed. Calls come from the whole dose curve; as a rule, active = well fitted curve in the direction sought with a large enough effect; inconclusive = small, poorly fitted or top-dose-only effect, or effect the other way; inactive = no such curve, though single readings can be large or run the other way. A selection follows.
Answer with one of the outcomes yes (1) for active, no (0) for inactive

Some solved entries appear below for comparison.
[[record]]
compound = "COCC(=O)N1CCC2(CCCN(C(=O)Nc3cccc(C#N)c3)C2)CC1"
testedon = "Cytochrome P450 2C9 (Homo sapiens) (UniProt P11712)"
labelvalue = "no (0)"

[[record]]
compound = "O=C(NCCNC[C@@H](O)COc1ccc(O)cc1)N1CCOCC1"
testedon = "Cytochrome P450 2C9 (Homo sapiens) (UniProt P11712)"
labelvalue = "no (0)"

[[record]]
compound = "O=C(NC1(C(F)(F)F)C(=O)Nc2c1c(=O)[nH]c(=O)n2-c1ccc(F)cc1)c1cccnc1 (stereo not given)"
testedon = "Cytochrome P450 2C9 (Homo sapiens) (UniProt P11712)"
labelvalue = "no (0)"

[[record]]
compound = "Cc1c(C(=O)NN2CCOCC2)nn(-c2ccc(Cl)cc2Cl)c1-c1ccc(I)cc1"
testedon = "Cytochrome P450 2C9 (Homo sapiens) (UniProt P11712)"
labelvalue = "yes (1)"


Shifting focus to the compound that follows.
Please indicate how the test categorized CC1CC2=C(NC(=S)NC2c2ccc(F)cc2)/C(=C/c2ccc(F)cc2)C1 (stereo not given) .
yes (1)

====

testedOn: Cytochrome P450 2C9 (Homo sapiens) (UniProt P11712)
methodNotes: Cytochrome panel assay with activity outcomes
reportedConditions: recombinant CYP, pro-luciferin dealkylation, luminescence, p450-cyp2c9; series mostly up to 57.1 µM
About 4,000 (25%) of roughly 16,000 compounds were called active. Inconclusive results (about 26%) are left out. Calls follow the shape of the dose curve; as a rule, active = well fitted curve in the direction sought with a large enough effect; inconclusive = small, poorly fitted or top-dose-only effect, or effect the other way; inactive = no such curve, though single readings can be large or run the other way. Only a sample is shown.
Answer with one of the outcomes active, inactive

Some solved entries appear below for comparison.
[[record]]
compound = "CCN1CCC[C@@H](OC(=O)C(c2ccccc2)c2ccccc2)C1"
labelvalue = "inactive"

[[record]]
compound = "CCN1CCc2nc(NC(=O)CC(c3ccccc3)c3ccccc3)sc2C1"
labelvalue = "active"

[[record]]
compound = "C=CCc1cc(C=O)cc(OC)c1OCc1ccc(Cl)cc1"
labelvalue = "active"

[[record]]
compound = "COc1ccc(S(=O)(=O)N(CCc2ccccc2)CC(=O)N2CCOCC2)cc1"
labelvalue = "inactive"

[[record]]
compound = "CCN(CC)C(=O)COc1ccc(S(=O)(=O)N2CCOCC2)cc1"
labelvalue = "inactive"


Please indicate how the test categorized CCOC(=O)C(NC(C)=O)C(OC(C)=O)c1cccc(N(CCO)CCO)c1 (stereo unspecified) .
inactive

====

testedOn: Cytochrome P450 2C9 (Homo sapiens)
methodNotes: Cytochrome panel assay with activity outcomes; for activity, negative = inhibition: % is set by controls: 0 for no effect and ±100 for the full control effect
reportedConditions: recombinant CYP, pro-luciferin dealkylation, luminescence, p450-cyp2c9; series mostly up to 57.1 µM
Screen size: about 16,000 compounds; about 4,000 (25%) were called active. Not shown: some 26% with an inconclusive outcome. Not all results are given here.
Measured activity, negative = inhibition values are reported for all entries that follow.

[[record]]
moleculesmiles = "N#Cc1cccc(-c2nccc(NCc3cccnc3)n2)c1"
result = "-11.5% [at 2.29 µM] (inactive)"


# next molecule below
// sample O=C(O)CC1(CC(=O)O)Nc2ccccc2SC1=O , its activity, negative = inhibition was -2.99% [at 11.4 µM] (inactive)

====

testedOn: Cytochrome P450 2C9 (Homo sapiens)
methodNotes: Cytochrome panel assay with activity outcomes
reportedConditions: recombinant CYP, pro-luciferin dealkylation, luminescence, p450-cyp2c9; series mostly up to 57.1 µM
About 4,000 (25%) of roughly 16,000 compounds were called active. Roughly 26% stayed inconclusive and do not appear here. The call rests on the fitted dose curve; in most records, active means well fitted curve in the direction sought with a large enough effect; inconclusive means small, poorly fitted or top-dose-only effect, or effect the other way; inactive means no such curve, though single readings can be large or run the other way. The list is a sample of the results.
Answer with one of the outcomes 1 (yes) for active, 0 (no) for inactive

[[record]]
compound = "CCOC(=O)c1sc(NC(=O)CSc2nc(C)cc(C)c2C#N)c(C#N)c1C"
labelvalue = "1 (yes)"

[[record]]
compound = "CC(C)(C)c1ccc(C2CC2C(=O)N/N=C\\c2cc3ccccc3nc2Cl)cc1 (stereo unspecified)"
labelvalue = "1 (yes)"

[[record]]
compound = "CCc1nnc(NC(=O)c2cc(-c3ccccc3)nn2-c2ccccc2)s1"
labelvalue = "1 (yes)"

[[record]]
compound = "COc1ccccc1CN1CCC2(CC1)CCN(C(=O)c1cccn1C)CC2"
labelvalue = "0 (no)"

[[record]]
compound = "CS(=O)(=O)N1CCC2(CCN(C(=O)Nc3cccc(C#N)c3)CC2)CC1"
labelvalue = "0 (no)"

[[record]]
compound = "CCCC(=O)Nc1nnc(CCN2CCCCC2)s1"
labelvalue = "0 (no)"

[[record]]
compound = "CC(O)(P(=O)(O)O)P(=O)(O)O"
labelvalue = "0 (no)"

[[record]]
compound = "Cc1nc(SCC(=O)Nc2c(C)nn(C)c2C)c2cnn(-c3ccccc3)c2n1"
labelvalue = "1 (yes)"


Please indicate how the test categorized CN(C(=O)C(Cl)Cl)c1ccc(OC(=O)c2ccco2)cc1 .
0 (no)

Please indicate how the test categorized O=C1NCCCC1C(=O)Nc1ccccc1C(F)(F)F (stereo unspecified) .
0 (no)

Please indicate how the test categorized CC(C)(C)c1[nH]nc2c1C(c1ccc(OC(=O)c3ccco3)cc1)C(C#N)=C(N)O2 (stereo unspecified) .
1 (yes)

====

testedOn: Cytochrome P450 2C9 (Homo sapiens) (UniProt P11712)
methodNotes: Cytochrome panel assay with activity outcomes
reportedConditions: recombinant CYP, pro-luciferin dealkylation, luminescence, p450-cyp2c9; series mostly up to 57.1 µM
Procedure: The P450 gene superfamily is involved in the metabolism and clearance of xenobiotics. This assay used various human CYP P450 isozymes to measure the dealkylation of various pro-luciferin substrates to luciferin. The luciferin is then measured by luminescence after the addition of a luciferase detection reagent. […] Inhibitors and some substrates limit the production of luciferin, and decrease measured luminescence. […] 8, Detection, 1 sec, ViewLux luminescent read […]
The campaign covered roughly 16,000 compounds. About 4,000 (25%) were called active. Roughly 26% stayed inconclusive and do not appear here. A selection follows.
valueType: AC50

These solved cases illustrate the format of a correct answer.
[[record]]
compound = "CCOC(=O)c1c(C)nc2sc3c(=O)n(-c4ccc(OC)cc4)nnc3c2c1-c1ccc(OC)cc1"
result = "10 µM (active)"

[[record]]
compound = "Cc1cccc(NC(=S)N2CCC(N(C)CC3CCCO3)CC2)c1C (centres undefined)"
result = "inactive"

[[record]]
compound = "OCCN=c1cc(-c2ccccc2)oc2ccc(Cl)cc12"
result = "2 µM (active)"

[[record]]
compound = "O=c1c(-c2ccc(O)cc2)coc2cc(O)ccc12"
result = "6.31 µM (active)"

[[record]]
compound = "Cc1noc(C)c1C(=O)N1CCC[C@@]2(CCN(C(=O)NC(C)C)C2)C1"
result = "inactive"

[[record]]
compound = "CCCOc1ccc(C(=O)NC(=S)Nc2nc3ccc(C)cc3s2)cc1"
result = "inactive"

[[record]]
compound = "CC1CCc2cc(F)ccc2N1C(=O)CSc1nnc2c(n1)[nH]c1ccc(F)cc12 (centres undefined)"
result = "1.78 µM (active)"

[[record]]
compound = "O=C(CSCc1ccccc1)Nc1cccc(C(=O)Nc2ccccc2C(=O)O)c1"
result = "0.447 µM (active)"

[[record]]
compound = "CS(=O)(=O)Nc1c(O)ccc2c1CCC[C@H]2C1=NCCN1"
result = "inactive"

[[record]]
compound = "CC(=O)OCCCN1c2ccccc2Nc2nnc(-c3ccccc3)cc21"
result = "1.78 µM (active)"


// sample COc1cccc(Nc2ncc3nc(-c4ccccc4)c(=O)n(C)c3n2)c1 , its AC50 was inactive

// sample Nc1ccc(-c2sc(N)nc2-c2ccccc2)cc1 , its AC50 was 28.2 µM (active)

// sample Cc1ccccc1NC(=O)C(C)c1cccc(C(=O)c2ccccc2)c1 (centres undefined) , its AC50 was 3.16 µM (active)

// sample Cc1ccc2nc(NC(=O)COC(=O)CSc3nc(C)cc(C)n3)sc2c1 , its AC50 was 3.98 µM (active)

// sample COc1cc(NC(=O)c2ccc(COCC(F)(F)F)cc2)cc(OC)c1OC , its AC50 was inactive

// sample Cc1nn(CC(=O)NCCN2CCOCC2)c(C)c1[N+](=O)[O-] , its AC50 was inactive
